- Target Or Test System: Cdc25C (Homo sapiens, UniProt P30307)
- Sequence (P30307 1-473): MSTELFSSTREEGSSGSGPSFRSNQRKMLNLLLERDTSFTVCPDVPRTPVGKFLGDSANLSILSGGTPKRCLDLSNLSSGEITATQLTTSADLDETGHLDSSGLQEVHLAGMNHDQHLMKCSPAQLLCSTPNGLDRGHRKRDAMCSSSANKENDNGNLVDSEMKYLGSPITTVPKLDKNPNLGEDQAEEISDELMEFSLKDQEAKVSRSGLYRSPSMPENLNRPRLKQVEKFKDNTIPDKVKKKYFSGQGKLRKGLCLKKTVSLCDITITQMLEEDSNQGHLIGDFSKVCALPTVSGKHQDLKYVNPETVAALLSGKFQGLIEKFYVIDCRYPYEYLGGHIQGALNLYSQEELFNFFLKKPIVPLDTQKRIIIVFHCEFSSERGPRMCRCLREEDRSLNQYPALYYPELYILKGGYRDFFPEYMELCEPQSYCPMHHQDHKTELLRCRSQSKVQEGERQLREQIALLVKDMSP
- Test Summary: Cdc25C phosphatase inhibition screen at 50 μM
- Assay type: biochemical
- Run Conditions: read-out: Percent Inhibition at 50 uM compound, Cdc25 C
Known inhibition at 50 µM of a selection of molecules

Entry Smiles	Target Or Test System	inhibition at 50 µM, %
COc1cccc2c(C3=C(O)C(=O)C=C(O)C3=O)c[nH]c12	Cdc25C (Homo sapiens, UniProt P30307)	13
O=C1C=C(O)C(=O)C(c2c[nH]c3c(Br)cccc23)=C1O	Cdc25C (Homo sapiens, UniProt P30307)	88
COc1cc2[nH]cc(C3=C(O)C(=O)C=C(O)C3=O)c2cc1OC	Cdc25C (Homo sapiens, UniProt P30307)	20
COc1ccc2[nH]c(C)c(C3=C(O)C(=O)C=C(O)C3=O)c2c1	Cdc25C (Homo sapiens, UniProt P30307)	31

----------
- Target Or Test System: UniProtKB P30304
- Test Summary: Cdc25A phosphatase inhibition screen at 50 μM
- Type: biochemical
- Run Conditions: read-out: Percent Inhibition at 50 uM compound, Cdc25 A
Quick rule: inhibition at 50 µM of at least 60% means Fulfilled, below that means Not fulfilled.

Molecule	Answer Label
Cc1cccc2[nH]cc(C3=C(O)C(=O)C=C(O)C3=O)c12 [4A]	Not fulfilled
Cc1[nH]c2ccccc2c1C1=C(O)C(=O)C=C(O)C1=O [2C]	Not fulfilled
O=C1C=C(O)C(=O)C(c2c[nH]c3cccc(OCc4ccccc4)c23)=C1O [3H]	Fulfilled
O=C1C=C(O)C(=O)C(c2c(-c3ccccc3)[nH]c3ccccc23)=C1O [3B]	Fulfilled

----------
- Target Or Test System: Cdc25B (Homo sapiens, UniProt P30305)
- Sequence (P30305 1-580): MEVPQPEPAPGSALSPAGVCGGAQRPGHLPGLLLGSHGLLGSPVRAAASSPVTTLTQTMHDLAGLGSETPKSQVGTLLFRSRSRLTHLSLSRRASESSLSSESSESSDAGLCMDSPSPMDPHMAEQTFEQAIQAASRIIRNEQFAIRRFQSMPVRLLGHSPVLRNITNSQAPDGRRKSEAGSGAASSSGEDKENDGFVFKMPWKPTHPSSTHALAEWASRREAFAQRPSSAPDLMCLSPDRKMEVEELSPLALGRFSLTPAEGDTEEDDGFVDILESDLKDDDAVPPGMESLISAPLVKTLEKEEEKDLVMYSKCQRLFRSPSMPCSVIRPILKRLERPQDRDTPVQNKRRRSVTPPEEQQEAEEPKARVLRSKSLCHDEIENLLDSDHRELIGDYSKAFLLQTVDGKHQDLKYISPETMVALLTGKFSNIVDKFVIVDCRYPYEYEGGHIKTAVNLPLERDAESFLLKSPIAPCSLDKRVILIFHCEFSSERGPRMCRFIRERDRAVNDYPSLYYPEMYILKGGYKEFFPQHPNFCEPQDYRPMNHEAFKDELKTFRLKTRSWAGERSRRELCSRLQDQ
- Test Summary: Cdc25B phosphatase inhibition (50 μM screen, 3 pt. and 8 pt. IC-50)
- Assay type: biochemical
- Run Conditions: Cdc25B; 3 pt. IC-50 using 1, 7 and 50 μM; read-out: IC50 (3 pt)

Compound	IC50, µM
Cc1ccc2[nH]c(C)c(C3=C(O)C(=O)C(c4c(C(C)(C)C)[nH]c5ccccc45)=C(O)C3=O)c2c1 [10G]	14.6
CC(C)c1[nH]c2ccccc2c1C1=C(O)C(=O)C(c2c(C(C)(C)C)[nH]c3ccccc23)=C(O)C1=O	5
O=C1C=C(O)C(=O)C(c2c[nH]c3cc4c(cc23)OCO4)=C1O	3.7
CC(C)(C)c1[nH]c2ccccc2c1C1=C(O)C(=O)C(c2c[nH]c3c(C(C)(C)C)cccc23)=C(O)C1=O [10F]	0.9
CC(C)(C)c1[nH]c2ccccc2c1C1=C(O)C(=O)C(c2c(C3CC3)[nH]c3ccccc23)=C(O)C1=O	5.6
CC(C)c1[nH]c2ccccc2c1C1=C(O)C(=O)C=C(O)C1=O	8.3
CC(C)(C)c1[nH]c2ccccc2c1C1=C(O)C(=O)C(c2c[nH]c3cc(F)ccc23)=C(O)C1=O [10C]	5.3
Cc1ccc2[nH]cc(C3=C(O)C(=O)C(c4c(C(C)(C)C)[nH]c5ccccc45)=C(O)C3=O)c2c1 [10B]	7.2
CC(C)(C)c1[nH]c2ccccc2c1C1=C(O)C(=O)C(c2c[nH]c3ccc(F)cc23)=C(O)C1=O	8.7
O=C1C=C(O)C(=O)C(c2c[nH]c3ccc(OCc4ccccc4)cc23)=C1O	1.8
Cc1cccc2c(C3=C(O)C(=O)C=C(O)C3=O)c[nH]c12	4.2
O=C1C=C(O)C(=O)C(c2c[nH]c3c(Cc4ccccc4)cccc23)=C1O	1.7
Cc1cccc2[nH]cc(C3=C(O)C(=O)C=C(O)C3=O)c12	6
CC(C)=CCc1cccc2c(C3=C(O)C(=O)C=C(O)C3=O)c[nH]c12	2.1
O=C1C=C(O)C(=O)C(c2c[nH]c3cccc(Cl)c23)=C1O	3
CC(C)(C)c1[nH]c2ccccc2c1C1=C(O)C(=O)C(c2c[nH]c3cccc(OCc4ccccc4)c23)=C(O)C1=O	2.3
C=CC(C)(C)c1[nH]c2ccccc2c1C1=C(O)C(=O)C=C(O)C1=O	40.3
CC(C)(C)c1cccc2c(C3=C(O)C(=O)C=C(O)C3=O)c[nH]c12	2.1
COc1cccc2[nH]cc(C3=C(O)C(=O)C=C(O)C3=O)c12	7.2
COC1=CC(=O)C(OC)=C(c2c[nH]c3c(F)cccc23)C1=O	125
COc1ccc2[nH]cc(C3=C(O)C(=O)C=C(O)C3=O)c2c1	6
CC(C)(C)c1[nH]c2ccccc2c1C1=C(O)C(=O)C(c2c[nH]c3ccc(OCc4ccccc4)cc23)=C(O)C1=O [10A]	0.6
Cc1ccc2[nH]cc(C3=C(O)C(=O)C=C(O)C3=O)c2c1	2.5
CCc1[nH]c2ccccc2c1C1=C(O)C(=O)C=C(O)C1=O	33.4
CC(C)(C)c1[nH]c2ccccc2c1C1=C(Cl)C(=O)C(c2c(-c3ccccc3)[nH]c3ccccc23)=C(O)C1=O [11H]	6.7
Cc1ccccc1Cc1cccc2c(C3=C(O)C(=O)C=C(O)C3=O)c[nH]c12	0.6
O=C1C=C(O)C(=O)C(c2c[nH]c3c(Br)cccc23)=C1O	2.1
COc1cc2[nH]cc(C3=C(O)C(=O)C=C(O)C3=O)c2cc1OC	117
Cn1cc(C2=C(O)C(=O)C=C(O)C2=O)c2ccccc21	185
CC(C)(C)c1[nH]c2ccccc2c1C1=C(O)C(=O)C(c2c(C(C)(C)C)[nH]c3ccccc23)=C(Cl)C1=O [11E]	22.9
Cc1ccc2[nH]c(C)c(C3=C(O)C(=O)C=C(O)C3=O)c2c1	16.5
CC(C)(C)c1[nH]c2ccccc2c1C1=C(Cl)C(=O)C(c2c[nH]c3ccccc23)=C(O)C1=O [11F]	49.9
O=C1C=C(O)C(=O)C(c2c[nH]c3c2ccc2ccccc23)=C1O	2.8
Cc1[nH]c2ccccc2c1C1=C(O)C(=O)C=C(O)C1=O	138
Cc1[nH]c2ccccc2c1C1=C(O)C(=O)C(c2c(C(C)(C)C)[nH]c3ccccc23)=C(O)C1=O	5.8
Cc1ccc2c(C3=C(O)C(=O)C(c4c(C(C)(C)C)[nH]c5ccccc45)=C(O)C3=O)c[nH]c2c1 [10D]	5.3

----------
- Target Or Test System: Cdc25A (Homo sapiens)
- Sequence (P30304 whole entry, species assumed): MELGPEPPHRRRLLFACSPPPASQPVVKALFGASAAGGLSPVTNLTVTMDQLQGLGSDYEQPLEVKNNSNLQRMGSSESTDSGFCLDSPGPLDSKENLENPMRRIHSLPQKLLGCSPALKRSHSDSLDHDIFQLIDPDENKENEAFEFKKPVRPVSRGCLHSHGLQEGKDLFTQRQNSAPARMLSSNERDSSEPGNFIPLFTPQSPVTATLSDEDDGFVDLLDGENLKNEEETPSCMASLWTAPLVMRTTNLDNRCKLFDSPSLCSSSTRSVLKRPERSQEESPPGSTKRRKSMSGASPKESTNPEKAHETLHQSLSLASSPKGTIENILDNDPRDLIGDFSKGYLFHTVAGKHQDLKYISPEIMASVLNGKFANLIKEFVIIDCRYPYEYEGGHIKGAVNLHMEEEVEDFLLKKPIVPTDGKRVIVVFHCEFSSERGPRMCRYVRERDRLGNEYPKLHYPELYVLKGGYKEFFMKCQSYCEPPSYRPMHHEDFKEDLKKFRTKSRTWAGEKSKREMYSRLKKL
- Test Summary: Cdc25A phosphatase inhibition screen at 50 μM
- Format: biochemical
- Run Conditions: read-out: Percent Inhibition at 50 uM compound, Cdc25 A
Known inhibition at 50 µM of a selection of compounds
Parameter Measured: inhibition at 50 µM (%)

Entry Smiles	Target Or Test System	Recorded Result
O=C1C=C(O)C(=O)C(c2c[nH]c3cc(Cl)ccc23)=C1O	Cdc25A (Homo sapiens)	99
CC(C)=CCCC(C)=CCCC(C)=CCc1cccc2c(C3=C(O)C(=O)C=C(O)C3=O)c[nH]c12	Cdc25A (Homo sapiens)	86
O=C1C=C(O)C(=O)C(c2c[nH]c3cccc(Br)c23)=C1O	Cdc25A (Homo sapiens)	0
O=C1C=C(O)C(=O)C(c2c[nH]c3ccc(Cl)cc23)=C1O	Cdc25A (Homo sapiens)	95
COc1cccc2c(C3=C(O)C(=O)C=C(O)C3=O)c[nH]c12	Cdc25A (Homo sapiens)	36
Cn1cc(C2=C(O)C(=O)C=C(O)C2=O)c2ccccc21	Cdc25A (Homo sapiens)	63
COc1ccc2[nH]c(C)c(C3=C(O)C(=O)C=C(O)C3=O)c2c1	Cdc25A (Homo sapiens)	0
O=C1C=C(O)C(=O)C(c2c[nH]c3c2ccc2ccccc23)=C1O	Cdc25A (Homo sapiens)	98
Cc1ccc2c(C3=C(O)C(=O)C=C(O)C3=O)c(C)[nH]c2c1	Cdc25A (Homo sapiens)	46
O=C1C=C(O)C(=O)C(c2c[nH]c3c(Cc4ccccc4)cccc23)=C1O	Cdc25A (Homo sapiens)	98
